Target: IP receptor (Homo sapiens)
Construct: expressed in transfected cells; host or cells: CHO cells stably expressing the IP receptor (CHO-IP)
Sequence (P43119 whole entry): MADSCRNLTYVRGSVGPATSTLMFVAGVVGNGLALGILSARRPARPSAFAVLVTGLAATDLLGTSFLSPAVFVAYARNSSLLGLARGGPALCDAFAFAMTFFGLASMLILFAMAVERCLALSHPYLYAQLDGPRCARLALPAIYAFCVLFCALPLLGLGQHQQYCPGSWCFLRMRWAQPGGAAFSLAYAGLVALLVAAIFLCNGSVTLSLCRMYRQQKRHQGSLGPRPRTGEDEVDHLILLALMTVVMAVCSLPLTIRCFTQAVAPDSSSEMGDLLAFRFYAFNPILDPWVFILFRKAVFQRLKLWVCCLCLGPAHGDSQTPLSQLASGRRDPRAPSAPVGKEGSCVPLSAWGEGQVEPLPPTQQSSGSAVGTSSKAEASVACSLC
Assay: cAMP accumulation in CHO cells stably expressing the IP receptor (CHO-IP), PerkinElmer AlphaScreen assay
Format: cell-based
Conditions: 1 hour at room temperature, Table 1, read-out: EC50
metricName: EC50 (nM)
Supply the numeric figure in nM, leaving out any unit text.

Example cases with answers are listed next.
> print(dat)
                                   compound  metricname  unitslabel  assayresult
1  Cc1ccc(-c2nc3c(nc2-c2ccc(C)cc2)N(CCCCCCC(=O)O)CC(O)C3O)cc1 (single isomer, unassigned) [Example 8.2a]        EC50          nM         0.49
2  COC1Cc2nc(-c3ccc(C)cc3)c(-c3ccc(C)cc3)nc2N(CCCCCCC(=O)O)C1 (single isomer, unassigned) [Example 17.1a]        EC50          nM            3
3  Cc1ccc(-c2nc3c(nc2-c2ccc(C)cc2)N(CCCCCCC(=O)O)CC(O)C3)cc1 (single isomer, unassigned) [Example 14.1]        EC50          nM       0.0718
4  CN1c2nc(-c3ccccc3)c(-c3ccccc3)cc2CCC1CCCCCC(=O)O (single isomer, unassigned) [Example 2.2]        EC50          nM          100
5  Cc1ccc(-c2nc3c(nc2-c2ccc(C)cc2)N(CCCCCCC(=O)O)CC(O)C3)cc1 (single isomer, unassigned) [Example 14.2]        EC50          nM       0.0627

query: Entry under review: Cc1ccc(-c2nc3c(nc2-c2ccc(C)cc2)N(CCCCCCC(=O)O)CCC3)cc1 . Reported EC50?
result: 0.11
